Just for reference, ChEMBL document CHEMBL5725801 is where these values come from.

assay: CaMKII Cell-Based Activity: CaMKII activity in neonatal rat ventricular myocytes (NRVM) was measured by monitoring the phosphorylation level of phospholamban using high-content imaging. NRVMs were plated in a clear bottom 384-well plate in medium supplemented with 10% fetal bovine serum (FBS) and incubated at 37° C., 5% CO2 overnight. The medium was changed to a serum-free medium and compounds were dosed to the cells. The cells were incubated at 37° C., 5% CO2 for 4 hours and were then treated with 100 nM ATX-II (Alomone Labs) to activate CaMKII. 10 minutes after the addition of ATX-II, the cells were fixed with 4% formaldehyde followed by permeabilization with 0.1% triton X100. The fixed cells were stained with an anti-phospho-phospholamban primary antibody (Santa Cruz Biotechnology) and an Alexa488-labeled anti-rabbit IgG secondary antibody (Life Technologies Corporation) as well as Hoechst 33342 (Life Technologies Corporation). The cells were imaged using an ArrayScan VTI (Cellomics) and analyzed for cells containing a positive fluorescent signal at 485 nm, reported as % responder. The % responders were plotted against the compound concentration to determine the compounds EC50.
endpointName: EC50 (nM)

(a) CC[C@]1(CNC(=O)c2ccnc(-c3cnn4ccc(-c5ccccc5)nc34)c2)CCCN1
(b) O=C(NCC1CCCCCN1)c1ccnc(-c2cnn3ccc(-c4cccs4)nc23)c1 (stereo not drawn)
Would you kindly point out which of a and b has the smaller EC50 figure? Respond with the label that goes with your answer.
a
(a: 143 nM, b: 347 nM)

(P) CCN(CC)[C@@H](C)CNC(=O)c1cc(OC[C@H](C)OC)nc(-c2cnn3ccc(-c4cccs4)nc23)c1
(Q) CCN(CC)[C@@H](C)CNC(=O)c1cc(-c2cnn3ccc(-c4cccs4)nc23)nc(N2CC[C@H]2COC)c1
(R) CCN(CC)[C@@H](C)CNC(=O)c1cc(-c2cnn3ccc(-c4ccccc4)nc23)nc(N2CC(OC)C2)c1
(S) CCN(CC)[C@@H](C)CNC(=O)c1cc(-c2cnn3ccc(-c4cccs4)nc23)nc(N2CCNC2=O)c1
(T) CCN(CC)[C@@H](C)CNC(=O)c1cc(NC[C@H](C)O)nc(-c2cnn3ccc(-c4cccs4)nc23)c1
Arrange these 5 compounds in increasing order of EC50. # respond with the labels, arranged in the requested order
R, T, P, Q, S
